The compounds listed here are annotated with their pIC50.
# Tested on: HeLa
# methodSummary: Antiproliferative activity against human HeLa cells incubated for 48 hrs by MTT assay
# Format: functional, cell-based
Recall that pIC50 is obtained by taking minus log10 of the concentration measured in molar.

Worked cases, answers included:
CCOc1ccc2c(Nc3cccc(OC)c3)ccnc2c1 : 6.39
CCOc1ccc2c(Nc3cccc([N+](=O)[O-])c3)ccnc2c1 : 5.47
C=CCOc1ccc2c(Nc3cccc(F)c3)ccnc2c1 : 6.51

In: Item: `O=[N+]([O-])c1cccc(Nc2ccnc3cc(OCc4ccc(F)cc4)ccc23)c1` Test system: HeLa Read-out: pIC50 Value: ?
Out: 5.24
